Below, each entry is listed alongside its reported AC50.
SYSTEM: Histamine H2 receptor (Homo sapiens, UniProt P25021); further: assay procedure not described here
Sequence (P25021 whole entry): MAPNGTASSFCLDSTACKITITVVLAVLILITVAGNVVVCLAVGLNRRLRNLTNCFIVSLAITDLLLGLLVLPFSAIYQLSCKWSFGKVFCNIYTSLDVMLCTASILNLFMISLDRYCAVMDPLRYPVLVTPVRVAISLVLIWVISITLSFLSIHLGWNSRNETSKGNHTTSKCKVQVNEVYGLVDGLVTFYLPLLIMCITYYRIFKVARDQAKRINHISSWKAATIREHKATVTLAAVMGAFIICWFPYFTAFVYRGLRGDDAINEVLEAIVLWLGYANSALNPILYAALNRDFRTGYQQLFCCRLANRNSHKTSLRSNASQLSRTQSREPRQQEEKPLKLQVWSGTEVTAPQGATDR
Type: functional, cell-based

Q. # get_value(readout='AC50', item= O=C(O)CCCCCCCC(=O)O [AZELAIC ACID] )
A. > 30 µM

Q. Now try CCCN1C[C@H](CSC)C[C@@H]2c3cccc4[nH]cc(c34)C[C@H]21 [PERGOLIDE] .
A. 0.95 µM

Q. Another compound to check: Brc1c(NC2=NCCN2)ccc2nccnc12 [BRIMONIDINE]
A. > 30 µM

Q. Quick one: NS(=O)(=O)Cc1noc2ccccc12 [ZONISAMIDE]
A. > 10 µM

Q. Same read-out for CC/C(=C(\c1ccccc1)c1ccc(OCCN(C)C)cc1)c1ccccc1 [TAMOXIFEN] ?
A. > 10 µM

Q. Now the same for C=CCC1(C(C)CC)C(=O)NC(=O)NC1=O (stereo unspecified) [TALBUTAL]
A. > 10 µM

Q. Try this compound too: CC(=O)NCCCS(=O)(=O)O [ACAMPROSATE]
A. > 30 µM

Q. Now the same for COc1cccc(C2(O)CCCCC2CN(C)C)c1 (stereo unspecified) [TRAMADOL]
A. > 10 µM

Q. Now consider NCC(=O)CCC(=O)O [AMINOLEVULINIC ACID] and answer again.
A. > 30 µM

Q. And CC1=C(C(=O)O)N2C(=O)[C@@H](NC(=O)[C@H](N)c3ccccc3)[C@H]2SC1 [CEPHALEXIN ANHYDROUS] ?
A. > 30 µM

Q. Continue with C[C@](N)(Cc1ccc(O)c(O)c1)C(=O)O [METHYLDOPA]
A. > 30 µM

Q. Request: CC(CC1c2ccccc2CCc2ccccc21)CN(C)C (stereo unspecified) [BUTRIPTYLINE]
A. > 30 µM
